Tested on: Calu-3
Procedure Text: cell viability relative to DMSO; higher = less toxic
Cond: 72 h; 10000 nM
Labelling: cell viability reported below 90% becomes Yes; at or above becomes No.

Recorded results for 2 compounds are shown here.
compound=O=C(Cc1ccc(Cl)c(Cl)c1)N1CCCC[C@@H]1CN1CCCC1 category_label=No
compound=CC(C)CNc1ccnc(NCc2csc(-c3ccccc3)n2)n1 category_label=Yes

Task: Dear colleague, could you confirm whether cell viability of COCC[n+]1c2c(n(Cc3cnccn3)c1C)C(=O)c1ccccc1C2=O falls below 90%? Thanks.
Output: Yes

Task: Determine whether this compound shows cell viability lower than 90% (ties excluded): CCCOc1ccc2[nH]cc(C3=CCNCC3)c2n1
Output: No

Task: Confirm or reject: cell viability of COc1ccccc1C1(O)CCN(CCCn2c3ccccc3c3ccccc32)CC1 lies strictly below 90%
Output: Yes

Task: Lab note: cell viability threshold 90%. Does this compound come in strictly under it? CCCCC/C=C\C/C=C\C/C=C\C/C=C\CCCC(=O)Nc1ccc(O)cc1
Output: No

Task: Item OCCn1cc(-c2cnc3nnn(Cc4ccc5ncccc5c4)c3n2)cn1 : cell viability beneath 90%, strictly?
Output: No

Task: Record CCCCCCCCc1ccc(CCC(N)(CO)CO)cc1 : is its cell viability strictly below 90%?
Output: Yes

Task: Strictly below 90% in cell viability? O=S(=O)(O)NC1CCCCC1
Output: No

Task: Does the reported cell viability of the following compound sit strictly below 90%? COc1ccc2cc3[n+](cc2c1OC)CCc1cc2c(cc1-3)OCO2
Output: No

----------
Tested on: Vero E6
Procedure Text: cell viability relative to DMSO; higher = less toxic
Cond: 72 h; 10000 nM
# Lookup of reported cell viability keyed by entry
Output spec: scalar in %, unitless text.

Examples with their reported cell viability follow.
compound="C[C@@H](O)[C@@H]1NC(=O)[C@H](CCCCN)NC(=O)[C@@H](Cc2c[nH]c3ccccc23)NC(=O)[C@H](Cc2ccccc2)NC(=O)[C@@H](NC(=O)[C@H](N)Cc2ccccc2)CSSC[C@@H](C(=O)N[C@H](CO)[C@@H](C)O)NC1=O [octreotide]" target_under_test="Vero E6" measure_unit=% recorded_measurement=93
compound=O=C(c1c(F)ccc(NS(=O)(=O)N2CC[C@@H](F)C2)c1F)c1c[nH]c2ncc(-c3cnc(C4CC4)nc3)cc12 target_under_test="Vero E6" measure_unit=% recorded_measurement=113
compound=CC(=O)Oc1cccc(C(=O)O)c1OC(C)=O target_under_test="Vero E6" measure_unit=% recorded_measurement=101

Task: I'm curious: which cell viability was measured for Brc1c(NC2=NCCN2)ccc2nccnc12 tested on Vero E6?
Output: 102

Task: Find the measured cell viability: item CC(C)C[C@H](NC(=O)CNC(=O)c1cc(Cl)ccc1Cl)B1OC(=O)C(CC(=O)O)(CC(=O)O)O1 , target or system Vero E6.
Output: 4.8

Task: # returns recorded cell viability (system: Vero E6) for O=C(O)/C=C(/CC(=O)O)C(=O)O [cis-aconitic-acid]
Output: 109

Task: Param readout = cell viability; param system = Vero E6; param query = N#Cc1ncccn1 ; response: value
Output: 94.6

Task: For Vero E6, provide cell viability of CCN1CCC[C@H]1CNC(=O)c1c(O)c(Cl)cc(Cl)c1OC [raclopride] please.
Output: 100
